- Measurement description: NCI Yeast Anticancer Drug Screen. Data for the mlh1 rad18 strain (AID 175)
- Condition summary: S. cerevisiae mlh1 rad18 strain growth inhibition; at 50.0 µM; stronger effect = higher value
About 79,000 compounds went through this panel and 15% of them were active in at least one assay; those are over-represented in the sample as a whole.
The compounds listed here are annotated with their growth inhibition.
Endpoint name: growth inhibition (%)

• COC(=O)c1ccccc1NC(=O)C(=O)Cc1nc2c3c(ccc2[nH]c1=O)C(=O)c1ccccc1C3=O = 66.6
• O=c1oc2c(-c3ccccc3)cccc2c(O)c1-c1ccccc1 = 70.5
• N#CC(C#N)=c1c2nsnc2c(=C(C#N)C#N)c2nsnc12 = 7.45
• CSc1cc(Cl)c(C)cc1S(=O)(=O)NC(=O)Nc1ccc(Cl)cc1 = 99.3
• CCCCCCCCCCCC[n+]1ccc(C#N)cc1 = 99.5
• CC(C)S(=O)(=O)ON1C(=O)c2ccc(N(C)C)cc2C1=O = 97.5
• Cc1[nH]nc(-c2cccnc2)c1N=NN1CCOCC1 = 98
• C[n+]1c2ccc(Cl)cc2nc2cc(-c3ccccc3)ccc21 = 98.6
• O=S(=O)(Nc1ccc(NS(=O)(=O)c2ccccc2)c(N2N=N2)c1)c1ccccc1 = 76.6
• CCCC/C=C(/CCCCOCOCCOC)[Si](C)(C)C = 30.8
• CCCCC(CC)CN1C(=O)C2C3C=CC(C3)C2C1=O (stereo unspecified) = 7.15
